Measurement Parameters: 318.15 K; 101 kPa; Liquid
Measurement Label: viscosity (mPa·s)

CCCO [propan-1-ol]; 1.24
CO [methanol]; 0.481

(P) CCO [ethanol]
(Q) CCCCn1cc[n+](C)c1.N#C[S-] [1-butyl-3-methylimidazolium thiocyanate]
QUERY: Which has the smaller recorded viscosity, P or Q ? Mark your selection by writing its label.
RESULT: P
(P: 0.774 mPa·s, Q: 24.2 mPa·s)

----------
Measurement Parameters: 308.15 K; 101 kPa; Liquid
Measurement Label: mass density (kg/m3)

CCO; 776.49
CCCCn1cc[n+](C)c1.N#C[S-] [1-butyl-3-methylimidazolium thiocyanate]; 1063.89
CO; 777.15
CCCO; 791.41

----------
Measurement Parameters: 308.15 K; 101 kPa; Liquid
Measurement Label: viscosity (mPa·s)

(1) CO [methanol]
(2) CCO [ethanol]
(3) CCCCn1cc[n+](C)c1.N#C[S-] [1-butyl-3-methylimidazolium thiocyanate]
(4) CCCO [propan-1-ol]
QUERY: Hi! Can you put these in order of viscosity, lowest number first? Order the labels as requested and list them.
RESULT: 1, 2, 4, 3
(1: 0.525 mPa·s, 2: 0.912 mPa·s, 4: 1.54 mPa·s, 3: 34.9 mPa·s)

----------
Measurement Parameters: 298.15 K; 101 kPa; Liquid
Measurement Label: viscosity (mPa·s)

CO; 0.577
CCCCn1cc[n+](C)c1.N#C[S-] [1-butyl-3-methylimidazolium thiocyanate]; 51.7

(I) CCCO
(II) CCO
QUERY: Of the pair I and II , name the member with the lesser recorded viscosity. Your answer should be the label of the entry you select.
RESULT: II

----------
Measurement Parameters: 298.15 K; 101 kPa; Liquid
Measurement Label: mass density (kg/m3)

CO; 786.64
CCCCn1cc[n+](C)c1.N#C[S-] [1-butyl-3-methylimidazolium thiocyanate]; 1069.79
CCO; 785.17
CCCO; 799.52

----------
Measurement Parameters: 318.15 K; 101 kPa; Liquid
Measurement Label: mass density (kg/m3)

CCO; 767.67
CCCO; 783.15
CO; 767.59
CCCCn1cc[n+](C)c1.N#C[S-] [1-butyl-3-methylimidazolium thiocyanate]; 1058.02

----------
Measurement Parameters: 328.15 K; 101 kPa; Liquid
Measurement Label: mass density (kg/m3)

CCCO; 774.66
CCO; 758.65
CO; 757.83
CCCCn1cc[n+](C)c1.N#C[S-] [1-butyl-3-methylimidazolium thiocyanate]; 1052.19

----------
Measurement Parameters: 328.15 K; 101 kPa; Liquid
Measurement Label: viscosity (mPa·s)

CCCCn1cc[n+](C)c1.N#C[S-] [1-butyl-3-methylimidazolium thiocyanate]; 16.7

(a) CO [methanol]
(b) CCO [ethanol]
(c) CCCO [propan-1-ol]
QUERY: Ordering: ascending viscosity. Put the labels in the order asked and list them.
RESULT: a, b, c
